IC50 tested on MAO-B (Homo sapiens, UniProt P27338): recorded values
Sequence (P27338 whole entry): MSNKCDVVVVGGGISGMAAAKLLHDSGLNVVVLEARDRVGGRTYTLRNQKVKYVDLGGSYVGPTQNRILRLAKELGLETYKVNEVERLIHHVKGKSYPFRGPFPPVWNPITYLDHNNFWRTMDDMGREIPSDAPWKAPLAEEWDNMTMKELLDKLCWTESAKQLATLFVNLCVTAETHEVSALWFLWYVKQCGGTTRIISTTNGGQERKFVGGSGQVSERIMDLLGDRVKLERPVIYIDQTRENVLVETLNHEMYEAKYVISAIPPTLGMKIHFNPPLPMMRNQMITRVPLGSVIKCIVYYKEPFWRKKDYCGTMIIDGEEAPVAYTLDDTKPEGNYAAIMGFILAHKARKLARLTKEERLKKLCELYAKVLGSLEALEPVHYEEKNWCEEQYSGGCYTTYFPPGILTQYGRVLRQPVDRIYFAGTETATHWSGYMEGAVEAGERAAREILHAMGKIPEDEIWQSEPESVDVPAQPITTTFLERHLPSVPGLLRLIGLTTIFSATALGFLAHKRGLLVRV
Structures can show the parent of a compound that is named as a salt.

- O=C(Nc1ccc([C@@H]2C[C@H]2N2CCCC2)cc1)c1ccccc1 (relative stereo) [Example 30, hydrochloride]: > 10 µM
- O=C(Nc1ccc([C@@H]2C[C@H]2NCc2ccccc2)cc1)c1cccc(N2CCCCC2)c1 (relative stereo) [Example 32]: > 10 µM
- O=C(Nc1ccc([C@@H]2C[C@H]2NCC2CC2)cc1)c1cc(-c2ccccc2)[nH]n1 (relative stereo) [Example 126]: > 10 µM
- CS(=O)(=O)c1cccc(C(=O)Nc2ccc([C@@H]3C[C@H]3NCC3CC3)cc2)c1 (relative stereo) [Example 91]: > 10 µM
- O=C(Nc1ccc([C@@H]2C[C@H]2NCc2cc3cccnc3s2)cc1)c1cccc(C(F)(F)F)c1 (relative stereo) [Example 161, hydrochloride]: > 10 µM

Hello, I am looking for reported IC50 with MAO-B (Homo sapiens, UniProt P27338) for CN1CCC(CN[C@@H]2C[C@H]2c2ccc(NC(=O)c3cccc(C(F)(F)F)c3)cc2)CC1 (relative stereo) [Example 155, dihydrochloride] . Could you help?
> 10 µM

Where these numbers come from: patent US9682925B2
